Data provenance is paper PMC9976900.

# target-desc: T1, Unr CSD789 R856A (Drosophila, UniProt B7Z0E2 756-990, R856A)
# T1 sequence: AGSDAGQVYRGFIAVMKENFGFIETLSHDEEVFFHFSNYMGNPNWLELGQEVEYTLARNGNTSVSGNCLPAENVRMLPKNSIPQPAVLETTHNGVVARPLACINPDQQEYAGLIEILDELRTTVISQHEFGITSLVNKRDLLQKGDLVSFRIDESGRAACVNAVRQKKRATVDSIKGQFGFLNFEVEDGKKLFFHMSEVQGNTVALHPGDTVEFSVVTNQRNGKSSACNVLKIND
# measurement-description: fluorescence polarization
endpoint: Kd (µM)
Answers are plain numbers, in µM.

input: Form field: reported Kd of AAAAAAAAAAAAAAA (ssRNA) [A15-mer, 3' labelled]
output: 72.4
